Sourced from patent US20240335462A1

Quick reference: log10 of GI50 of the listed items.
# SYSTEM TESTED: Ba/F3-FL-TYK2-E957D cells (Homo sapiens, UniProt P29597, E957D, cells depend on it)
# Sequence (P29597 whole entry E957D): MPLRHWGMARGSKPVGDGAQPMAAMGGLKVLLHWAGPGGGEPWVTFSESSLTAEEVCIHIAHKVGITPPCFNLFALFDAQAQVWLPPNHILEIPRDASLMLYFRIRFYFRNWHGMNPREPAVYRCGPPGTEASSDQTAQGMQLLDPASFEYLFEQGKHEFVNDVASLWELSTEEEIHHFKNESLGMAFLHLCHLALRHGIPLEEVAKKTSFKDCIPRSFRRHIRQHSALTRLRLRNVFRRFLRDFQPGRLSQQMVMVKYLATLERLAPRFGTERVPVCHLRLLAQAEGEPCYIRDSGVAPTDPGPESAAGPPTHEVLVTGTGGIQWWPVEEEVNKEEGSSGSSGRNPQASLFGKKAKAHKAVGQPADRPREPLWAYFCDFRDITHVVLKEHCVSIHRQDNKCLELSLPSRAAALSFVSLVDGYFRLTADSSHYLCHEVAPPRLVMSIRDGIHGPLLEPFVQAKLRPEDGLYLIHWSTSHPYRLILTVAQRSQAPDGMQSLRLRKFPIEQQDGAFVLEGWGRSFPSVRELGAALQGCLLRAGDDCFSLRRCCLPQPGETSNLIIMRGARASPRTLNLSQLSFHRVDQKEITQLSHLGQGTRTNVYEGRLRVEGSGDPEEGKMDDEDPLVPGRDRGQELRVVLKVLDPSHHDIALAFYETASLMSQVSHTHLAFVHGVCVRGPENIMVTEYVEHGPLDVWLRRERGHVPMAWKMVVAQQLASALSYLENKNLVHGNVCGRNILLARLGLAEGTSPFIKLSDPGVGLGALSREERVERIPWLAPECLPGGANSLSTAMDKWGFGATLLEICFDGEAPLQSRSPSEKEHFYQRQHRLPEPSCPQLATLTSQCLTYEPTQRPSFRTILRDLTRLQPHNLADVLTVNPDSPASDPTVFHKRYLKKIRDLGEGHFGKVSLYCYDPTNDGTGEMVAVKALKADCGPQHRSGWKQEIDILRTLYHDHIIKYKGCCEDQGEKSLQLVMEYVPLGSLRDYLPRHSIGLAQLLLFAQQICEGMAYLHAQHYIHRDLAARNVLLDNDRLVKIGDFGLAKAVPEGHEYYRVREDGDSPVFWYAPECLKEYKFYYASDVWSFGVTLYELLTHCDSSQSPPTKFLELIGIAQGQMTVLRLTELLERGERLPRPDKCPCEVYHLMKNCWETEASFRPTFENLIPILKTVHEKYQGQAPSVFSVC
# ASSAY INFO: Proliferation of Ba/F3-FL-TYK2-E957D cells (CellTiter-Glo)
# Format: cell-based, mouse
# CONDITION PARAMETERS: 72 hours, read-out: Half maximal inhibitory concentration IC50 for cells Ba/F3-FL-TYK2-E957D
# Source text: Adenosine triphosphate (ATP) serves as a universal energy carrier in various life processes, representing the smallest unit of energy storage and transfer. […] By adding CellTiter-Glo™ reagent to the cell culture medium and measuring the luminescence, the light signal was directly proportional to the amount of ATP in the system, and ATP was positively correlated with the number of viable cells. Therefore, cell proliferation can be detected by measuring ATP content using the CellTiter-Glo kit. […]
Counter-ions that a name gives are not always drawn.
All values: base-10 log of GI50 in nM.

Consider the worked cases shown below.
{"columns": ["MOLECULE", "log10 of GI50"],
 "data": [
  ["CNC(=O)c1cnc(NC(=O)C2CC2)cc1Nc1cccc(-c2ncc(S(=O)(=O)N3CCC3)cn2)c1OC [Hydrochloride of WX-018]", 0.62],
  ["COc1c(Nc2cc(NC(=O)C3CC3)ncc2C(N)=O)cccc1-c1ncc(S(=O)(=O)C(C)C)cn1", -1.00]
]}

Exercise: Request the reported log10 of GI50 associated with "[2H]C([2H])([2H])NC(=O)c1cnc(NC(=O)C2CC2)cc1Nc1cccc(-c2ccc(S(C)(=O)=O)cn2)c1OC"
Key: 0.74

Exercise: [2H]C([2H])([2H])NC(=O)c1cnc(NC(=O)C2CC2)cc1Nc1cccc(-c2ccc(S(C)(=O)=O)cc2)c1OC [Hydrochloride of WX-007] ?
Key: 0.98

Exercise: [2H]C([2H])([2H])NC(=O)c1nnc(NC(=O)C2CC2)cc1Nc1cc(F)cc(-c2ccc(P(C)(C)=O)cc2)c1OC [Hydrochloride of WX-027] ?
Key: 1.26

Exercise: [2H]C([2H])([2H])NC(=O)c1cnc(NC(=O)C2CC2)cc1Nc1cccc(-c2ncc(S(C)(=O)=O)cn2)c1OC [Hydrochloride of WX-001] ?
Key: 1.14
